- measurement.target: es nucleoside transporter (Sus scrofa, UniProt A0A287B2T6)
- Construct: immediately processed by conventional methods for recovery of erythrocytes; tissue Gainers, Edmonton, Alberta, Canada (blood of domestic pigs)
- Sequence (A0A287B2T6 1-457): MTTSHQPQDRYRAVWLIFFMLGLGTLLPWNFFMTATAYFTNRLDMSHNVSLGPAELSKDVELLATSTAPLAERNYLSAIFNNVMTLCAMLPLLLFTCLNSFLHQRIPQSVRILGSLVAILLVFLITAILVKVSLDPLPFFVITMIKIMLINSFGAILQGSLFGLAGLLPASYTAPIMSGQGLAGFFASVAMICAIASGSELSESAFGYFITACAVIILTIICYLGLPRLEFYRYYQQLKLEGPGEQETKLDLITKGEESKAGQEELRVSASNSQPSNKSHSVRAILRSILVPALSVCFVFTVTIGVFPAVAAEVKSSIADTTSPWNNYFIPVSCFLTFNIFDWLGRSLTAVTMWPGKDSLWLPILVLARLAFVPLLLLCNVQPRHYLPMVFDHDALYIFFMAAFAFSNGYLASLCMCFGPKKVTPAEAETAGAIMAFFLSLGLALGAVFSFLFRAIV
- assay.notes: Inhibition of site-specific [3H]NBMPR binding to unsealed pig erythrocyte ghosts
- condition.summary: 2 nM [3H]NBMPR, 20 min, 22° C., pH 7.4; read-out: IC50 for inhibition of site-bound [3H]NBMPR
readout: pIC50
Remember, pIC50 is on a log scale: it is -log10 of the molar concentration.

Query: Please look up its pIC50: "CC(=O)NCCSC[C@H]1O[C@@H](n2cnc3c(NCc4ccc([N+](=O)[O-])cc4)ncnc32)[C@H](O)[C@@H]1O"
Result: 7.12

Query: Please look up its pIC50: "NCCSC[C@H]1O[C@@H](n2cnc3c(NCc4ccc([N+](=O)[O-])cc4)ncnc32)[C@H](O)[C@@H]1O"
Result: 6.48
